molecules and their reported GI50
- Tested on: Hs-578T
- Assay method text: NCI tumour cell line growth inhibition, 48 h
Active and inactive are the calls of the source. No stated cut-off is given here; in the data, active = GI50 up to about 1.1 µM and inactive = higher. Where a SMILES comes first, the peptide text is derived from it. [ ]: non-standard residue; d: D form. The star is where a group is joined. ξ: configuration not given here. X38 = O=C(OCc1ccccc1)[C@@H]1CCC[C@H]1N*; Fmoc = O=C(OCC1c2ccccc2-c2ccccc21)*; ξW = NC(Cc1c[nH]c2ccccc12)C(=O)O; ξF = NC(Cc1ccccc1)C(=O)O; Boc = CC(C)(C)OC(=O)*; ξK = NCCCCC(N)C(=O)O; ξT = CC(O)C(N)C(=O)O; tBu = CC(C)(C)*
Readout: GI50

[
  {
    "Molecule": "CC(OC(C)(C)C)C(NC(=O)C(CCCCNC(=O)OC(C)(C)C)NC(=O)C(Cc1c[nH]c2ccccc12)NC(=O)C(Cc1ccccc1)NC(=O)OCC1c2ccccc2-c2ccccc21)C(=O)NC(Cc1ccccc1)C(=O)N[C@@H]1CCC[C@H]1C(=O)OCc1ccccc1 (some centres undefined) (Fmoc-[ξF][ξW][ξK](Boc)[ξT](tBu)[ξF]-X38)",
    "Readout": "GI50",
    "Result": "31 µM (inactive)"
  },
  {
    "Molecule": "O=C(CCCl)NN=C1NCCN1",
    "Readout": "GI50",
    "Result": "> 100 µM (inactive)"
  },
  {
    "Molecule": "COc1ccc(-c2oc3c(OC)c(OC)c(OC)c(O)c3c(=O)c2OC)cc1OC",
    "Readout": "GI50",
    "Result": "3.01 µM (inactive)"
  },
  {
    "Molecule": "CC(=O)N1c2ccccc2C23CCN(C)CC4C(C)OCC(C4CC2=O)C13 (centres undefined)",
    "Readout": "GI50",
    "Result": "> 100 µM (inactive)"
  }
]

###

- Test system: KM12
- Assay method text: NCI tumour cell line growth inhibition, 48 h
Calls of active or inactive are those of the source. Rule as the data show it: active = GI50 up to about 1.1 µM and inactive = higher.
Classes used: active, inactive

[
  {
    "Compound": "CN(C(=O)Nc1ccc(Cl)c(Cl)c1)C1CCCC[C@@H]1N1CCCC1 (stereo not given in full)",
    "Category label": "inactive"
  },
  {
    "Compound": "CC(=O)O[C@H]1C[C@H]2[C@@H](OC(C)=O)/C=C3\\C[C@](C)(C(=O)[C@H](O)C(=C1C)C2(C)C)[C@@H](O)C[C@@H]3OC(=O)[C@H](O)[C@H](c1ccccc1)N(C)C",
    "Category label": "inactive"
  },
  {
    "Compound": "O=C1NC2C(O)CCCCC2C12CCCCC2 (stereo not given)",
    "Category label": "inactive"
  },
  {
    "Compound": "O=c1/c(=C/c2ccccc2[N+](=O)[O-])sc2nnc(-c3ccco3)n12",
    "Category label": "inactive"
  },
  {
    "Compound": "CON(C)C(C#N)=C(C#N)C#N",
    "Category label": "inactive"
  },
  {
    "Compound": "COC1(OC)CCC2C1C1CCC(OC)(OC)C21 (stereo not given)",
    "Category label": "inactive"
  },
  {
    "Compound": "C[N+](C)(C)CCC(=O)CC[N+](C)(C)C",
    "Category label": "inactive"
  },
  {
    "Compound": "CC(=O)C1=C(C)O[C@@H]2O[C@H](COCc3ccccc3)[C@@H](OCc3ccccc3)[C@H](O)[C@@H]2S1",
    "Category label": "inactive"
  },
  {
    "Compound": "Cc1cc(=O)n2c3c(c4c(cc13)c(CN(C)C)cc(=O)n4C)OC2",
    "Category label": "inactive"
  },
  {
    "Compound": "Cn1c(=O)nc2n(-c3ccc(Cl)cc3)c3cc(Cl)ccc3nc-2c1=O",
    "Category label": "inactive"
  },
  {
    "Compound": "COc1ccc(-c2oc3cc(OC)c(OC)c(O)c3c(=O)c2OC)cc1",
    "Category label": "inactive"
  },
  {
    "Compound": "Cc1n[nH]c(C(F)(F)F)c1/N=N/N1CCOCC1",
    "Category label": "inactive"
  },
  {
    "Compound": "O=C(O)C[C@@H]1[C@@H](O)[C@@H](O)CN2C(=O)c3ccccc3[C@H]12",
    "Category label": "inactive"
  },
  {
    "Compound": "COC(=O)[C@H](Cc1ccccc1)NC(=O)N(CCNC(=O)OC(C)(C)C)c1ccccc1",
    "Category label": "inactive"
  },
  {
    "Compound": "O=C1/C(=C/c2ccccc2)Oc2cc(O)ccc21",
    "Category label": "inactive"
  },
  {
    "Compound": "Cc1ccc(S(=O)(=O)Oc2nc3nc4ccccc4nc3nc2OS(=O)(=O)c2ccc(C)cc2)cc1",
    "Category label": "inactive"
  },
  {
    "Compound": "CC(C)C(/N=C1\\CC2CCC1(C(=O)Nc1ccccc1O)C2(C)C)c1ccccc1 (stereo not given)",
    "Category label": "inactive"
  },
  {
    "Compound": "COc1cc2cc(C(=O)N3CC(CCl)c4ccc(O)cc43)[nH]c2c(OC)c1OC (stereo not given)",
    "Category label": "active"
  },
  {
    "Compound": "CCOP(=O)(OCC)C(N)Cc1ccc(OC)c(OC)c1 (stereo not given)",
    "Category label": "inactive"
  },
  {
    "Compound": "CC[P+](c1ccccc1)(N(C)C)N(C)C",
    "Category label": "inactive"
  },
  {
    "Compound": "O=C(Nn1c(-c2ccccc2)nc2ccccc2c1=O)c1ccc(CS)cc1",
    "Category label": "inactive"
  },
  {
    "Compound": "Cc1cc(C(=O)NCCN(C)C)c2nc3ccccc3cc2c1",
    "Category label": "inactive"
  },
  {
    "Compound": "COc1cc2c(c(OC)c1OC)C(=O)c1c(O)cc(C)c(OC)c1C2=O",
    "Category label": "inactive"
  },
  {
    "Compound": "Cc1cc(C(O)CNC(C)CCn2cnc3c2c(=O)n(C)c(=O)n3C)ccc1O (stereo not given)",
    "Category label": "inactive"
  },
  {
    "Compound": "O=C(CCN1CCOCC1)Nc1ccc(F)cc1F",
    "Category label": "inactive"
  },
  {
    "Compound": "FC(F)(F)c1nc(-c2ccccc2)oc1Sc1nnc(Sc2oc(-c3ccccc3)nc2C(F)(F)F)s1",
    "Category label": "inactive"
  },
  {
    "Compound": "C[n+]1c(-c2ccc(/C=N/NC(=N)N/N=C/c3ccc(-c4cn5cc(Cl)ccc5[n+]4C)cc3)cc2)cn2cc(Cl)ccc21",
    "Category label": "inactive"
  },
  {
    "Compound": "COC(=O)[C@]1(C)CCC[C@@]2(C)C1CCC1=C[C@@]3(C(C)C)CC[C@]12OO3 (stereo not given in full)",
    "Category label": "inactive"
  },
  {
    "Compound": "CC1SC2=NC3=C(c4ccccc4C3=O)C(c3ccc(Cl)cc3)N2C1=O (stereo not given)",
    "Category label": "inactive"
  },
  {
    "Compound": "O=C1C=C2C(=NC34CCCCC3C(c3ccccc3)C3=C(c5ccccc5CC3)N24)c2ccccc21 (stereo not given)",
    "Category label": "inactive"
  }
]

###

- Test system: A498
- Assay method text: NCI tumour cell line growth inhibition, 48 h
The source made the active and inactive calls. Rule as the data show it: active = GI50 up to about 1.1 µM and inactive = higher.
compounds and their reported GI50
Readout: GI50

[
  {
    "Compound": "O[C@H]1[C@H]2[C@H](O)C[C@H](CCOCc3ccccc3)CN2C[C@H]1O",
    "Result": "> 100 µM (inactive)"
  },
  {
    "Compound": "O=C1C=CC(=O)c2c(Cl)ccc(O)c21",
    "Result": "> 87.9 µM (inactive)"
  },
  {
    "Compound": "Cc1nc(=O)n2c(c1C(=O)Nc1ccc(Cl)cc1)NCC2",
    "Result": "> 72.8 µM (inactive)"
  },
  {
    "Compound": "CN1N=CSC12C(=O)N(c1ccccc1)C(=O)N2c1ccccc1 (stereo unspecified)",
    "Result": "> 100 µM (inactive)"
  },
  {
    "Compound": "ClCc1ccc2ccc3ccc(CCl)nc3c2n1",
    "Result": "10.6 µM (inactive)"
  },
  {
    "Compound": "COc1cc2c(c(OC)c1OC)C(=O)c1c(O)cc(C)c(OC)c1C2=O",
    "Result": "> 100 µM (inactive)"
  }
]

###

- System: MDA-MB-435
- Assay method text: NCI tumour cell line growth inhibition, 48 h
Active and inactive are the calls of the source. Rule as the data show it: active = GI50 up to about 1.1 µM and inactive = higher. Where a SMILES comes first, the peptide text is derived from it. [ ]: non-standard residue; d: D form. The star is where a group is joined. ξ: configuration not given here. ξNMe2Val = CC(C)C(C(=O)*)N(C)C; NMeV = CN[CH](C(=O)O)C(C)C; NHBn = c1ccc(CN*)cc1
Classes used: active, inactive

[
  {
    "Molecule": "O=C1C=C(Nc2cccnc2)c2ccccc2/C1=N/O",
    "Category label": "inactive"
  },
  {
    "Molecule": "OCCCCCCOc1ccc(-c2cc(-c3ccccn3)nc(-c3ccccn3)c2)cc1",
    "Category label": "active"
  },
  {
    "Molecule": "c1ccc(C(=NNc2nc3ccccc3o2)c2ccccn2)nc1",
    "Category label": "active"
  },
  {
    "Molecule": "N#Cc1cc2c(cc1C#N)SCCSCCCSCCS2",
    "Category label": "inactive"
  },
  {
    "Molecule": "CC(C)C(NC(=O)C(C(C)C)N(C)C)C(=O)N(C)C(C(=O)N1CCCC1C(=O)N1CCCC1C(=O)NCc1ccccc1)C(C)C (centres undefined) (ξNMe2Val-V[NMeV]PP-NHBn; configuration not given here)",
    "Category label": "active"
  },
  {
    "Molecule": "CC(C)C1(NC(=O)C2CC3c4cccc5[nH]cc(c45)CC3N(C)C2)OC2(O)C3CCCN3C(=O)C(Cc3ccccc3)N2C1=O (centres undefined)",
    "Category label": "inactive"
  },
  {
    "Molecule": "COc1cccc(OCC(=N/NC(=O)c2ccncc2)/N=C/c2ccncc2)c1",
    "Category label": "inactive"
  },
  {
    "Molecule": "CC[C@H](O)[C@H](C)C=C1SCCCS1",
    "Category label": "inactive"
  },
  {
    "Molecule": "Cc1c(C=C(C#N)C#N)c(=O)n(C)c(=O)n1C",
    "Category label": "inactive"
  }
]
